Sourced from patent US20210246166A1

target: T1, Recombinant human MASP1 enzyme (fragment corresponding to amino acids 297-699, C-terminal His Tag) (human, UniProt P48740 297-699)
T1 sequence: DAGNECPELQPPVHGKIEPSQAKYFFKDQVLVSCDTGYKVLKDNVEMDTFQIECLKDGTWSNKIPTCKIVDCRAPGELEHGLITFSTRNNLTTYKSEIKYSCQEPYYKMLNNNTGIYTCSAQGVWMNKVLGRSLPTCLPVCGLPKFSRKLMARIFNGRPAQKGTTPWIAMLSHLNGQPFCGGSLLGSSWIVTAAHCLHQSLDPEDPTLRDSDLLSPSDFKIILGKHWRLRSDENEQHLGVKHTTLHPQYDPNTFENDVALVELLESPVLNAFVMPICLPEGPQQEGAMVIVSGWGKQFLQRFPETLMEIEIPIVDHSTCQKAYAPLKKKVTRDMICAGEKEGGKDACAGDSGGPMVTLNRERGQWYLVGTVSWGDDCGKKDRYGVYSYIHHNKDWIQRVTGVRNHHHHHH
assay.name: cell-based or functional assay
Numbered stars: 1 amine (or outer) side, 2 acyl side, 3 side chain; on linkers, the order of the positions; unused ones are H or OH. Bridge positions count the residues as written; N and C are the ends. Square brackets hold non-standard residues; d marks the D form. Ends that are not written are not given here. Phe(2,5-F2) = 2,5-difluorophenylalanine, O=C([C@H](Cc1cc(F)ccc1F)N[*:1])[*:2]; tBuAla = CC(C)(C)C[C@H](N)C(=O)O; NMeC = CN[C@@H](CS)C(=O)O
result.type: human MASP1 IC50
Answer with the number, then the unit.

HICSRS[tBuAla]PPI[NMeC]I-NH2 (disulfide 3-11; N-terminus assumed; SMILES CC[C@H](C)[C@H](NC(=O)[C@@H]1CSSC[C@H](NC(=O)[C@@H](NC(=O)[C@@H](N)Cc2c[nH]cn2)[C@@H](C)CC)C(=O)N[C@@H](CO)C(=O)N[C@@H](CCCNC(=N)N)C(=O)N[C@@H](CO)C(=O)N[C@@H](CC(C)(C)C)C(=O)N2CCC[C@H]2C(=O)N2CCC[C@H]2C(=O)N[C@@H]([C@@H](C)CC)C(=O)N1C)C(N)=O) [HIC+SRS-((tBu)A)-PPI-((N-Me)C)+I-NH2] :: 3.8 nM

Shift focus to the following entry.
The binder listed as AICSRS[Phe(2,5-F2)]PPI[NMeC]IPD-NH2 (disulfide 3-11; N-terminus assumed; SMILES CC[C@H](C)[C@H](NC(=O)[C@H](C)N)C(=O)N[C@H]1CSSC[C@@H](C(=O)N[C@H](C(=O)N2CCC[C@H]2C(=O)N[C@@H](CC(=O)O)C(N)=O)[C@@H](C)CC)N(C)C(=O)[C@H]([C@@H](C)CC)NC(=O)[C@@H]2CCCN2C(=O)[C@@H]2CCCN2C(=O)[C@H](Cc2cc(F)ccc2F)NC(=O)[C@H](CO)NC(=O)[C@H](CCCNC(=N)N)NC(=O)[C@H](CO)NC1=O) [AIC+SRS-((2,5-Difluoro)F)-PPI-((N-Me)C)+IPD-NH2] shows human MASP1 IC50 equal to 7.6 nM
